Counter-ions that a name gives are not always drawn.
QUANTITY_MEASURED: melting point

Use these answered entries as a reference point.
- COMPOUND: "CNCCCNCCCc1cc(C(=O)NCC23CC4CC(CC(C4)C2)C3)c(Cl)cn1 (as salt: trifluoroacetate) [Example 22, bis(trifluoroacetate)]"
  melting point: "210 to 212 °C"
- COMPOUND: "CNCCNCc1cc(C(=O)NCC23CC4CC(CC(C4)C2)C3)c(Cl)cn1 (as salt: hydrochloride) [Example 31, dihydrochloride]"
  melting point: "259 to 262 °C"

Would you kindly look at the next entry?
Return reported melting point; argument: O=C(NCC12CC3CC(CC(C3)C1)C2)c1cc(CNCCNCCO)ncc1Cl (as salt: hydrochloride) [Example 30, dihydrochloride]
289 to 292 °C

###

Parameter: melting point. Scope: all listed entries.
Counter-ions that a name gives are not always drawn.

Some solved entries appear below for comparison.
- MOLECULE: "CCNCCCc1cc(C(=O)NCC23CC4CC(CC(C4)C2)C3)c(Cl)cn1 (as salt: hydrochloride)"
  QUANTITY_MEASURED: "melting point"
  ENDPOINT_VALUE: "206 to 208 °C (dec.)"
- MOLECULE: "O=C(NCC12CC3CC(CC(C3)C1)C2)c1cc(CCCNCCCO)cnc1Cl"
  QUANTITY_MEASURED: "melting point"
  ENDPOINT_VALUE: "105 to 107 °C"
- MOLECULE: "CNCCNCCCc1cc(C(=O)NCC23CC4CC(CC(C4)C2)C3)c(Cl)cn1 (as salt: hydrochloride) [Example 21, dihydrochloride]"
  QUANTITY_MEASURED: "melting point"
  ENDPOINT_VALUE: "216 to 219 °C"

# input molecule: CN(CCO)CCCc1cc(C(=O)NCC23CC4CC(CC(C4)C2)C3)c(Cl)cn1 (as salt: hydrochloride) [Example 26, dihydrochloride] ; wanted: its melting point
206 to 208 °C

###

Entries annotated with measured melting point
Counter-ions that a name gives are not always drawn.

- MOLECULE: "O=C(NCC12CC3CC(CC(C3)C1)C2)c1cc(CCCNCCO)ncc1Cl (as salt: hydrochloride)"
  melting point: "204 to 205 °C (dec.)"
- MOLECULE: "C[C@@H](O)CNCCCc1cc(C(=O)NCC23CC4CC(CC(C4)C2)C3)c(Cl)cn1 (as salt: hydrochloride) [Example 28, dihydrochloride]"
  melting point: "224 to 226 °C"
- MOLECULE: "O=C(NCC12CC3CC(CC(C3)C1)C2)c1cc(CCNCCO)ncc1Cl (as salt: hydrochloride) [Example 32, dihydrochloride]"
  melting point: "242 to 244 °C"

Query (molecule): O=C(NCC12CC3CC(CC(C3)C1)C2)c1cc(CCCNC[C@@H](O)CO)ncc1Cl (as salt: hydrochloride) [Example 16, dihydrochloride] ; field requested: melting point
217 to 219 °C

Record request: melting point value, item C[C@H](CO)NCCCc1cc(C(=O)NCC23CC4CC(CC(C4)C2)C3)c(Cl)cn1 (as salt: hydrochloride) [Example 9, dihydrochloride]
205 to 208 °C

Please look up its melting point: CNCCCc1cc(C(=O)NCC23CC4CC(CC(C4)C2)C3)c(Cl)cn1 (as salt: hydrochloride)
210 to 212 °C
